Tested on: AS120
Assay: qHTS profiling for inhibitors of Plasmodium falciparum proliferation (AID 504749); further: nearly all actives have a fitted effect of over 60% in size
Details: P. falciparum in erythrocytes, SYBR Green DNA, 72 h; series mostly up to 28.7 µM
Results filed as inconclusive are left out. The source made the active and inactive calls. The call rests on the fitted dose curve; in most records, active means well fitted inhibition curve with a large enough effect; inconclusive means small, poorly fitted or top-dose-only effect; inactive means flat fitted curve, though single readings scatter.
// classify into true (1) for active, false (0) for inactive

Exercise: Hi, do you know how CN(Cc1cnc2nc(N)nc(N)c2n1)c1ccc(C(=O)N[C@@H](CCC(=O)O)C(=O)O)cc1 came out in this test?
Key: true (1)

Exercise: Short answer needed: outcome of this test for Nc1nc2c(ncn2COC(CO)CO)c(=O)[nH]1 ?
Key: false (0)

Exercise: Check the results log: what was the call for CCOC(=O)Nc1ccc(NCc2ccc(F)cc2)nc1N ?
Key: true (1)

Exercise: Field: outcome | Entry: Cc1cnc(C(=O)NCCc2ccc(S(=O)(=O)NC(=O)NC3CCCCC3)cc2)cn1
Key: false (0)

Exercise: What classification did CS(=O)(=O)CCNCc1ccc(-c2ccc3ncnc(Nc4ccc(OCc5cccc(F)c5)c(Cl)c4)c3c2)o1 end up with in this test?
Key: false (0)

Exercise: Entry Clc1ccc(C(c2ccccc2Cl)C(Cl)Cl)cc1 (stereo not given) : call = ?
Key: false (0)

Exercise: What classification did O=C1N(c2ccccc2)c2ccccc2C1(Cc1ccncc1)Cc1ccncc1 end up with in this test?
Key: false (0)

Exercise: For COc1cc2c(c(OC)c1OC)-c1ccc(OC)c(=O)cc1[C@@H](NC(C)=O)CC2 , which call appears in the assay record?
Key: false (0)

Exercise: For CC(CCc1ccc(O)cc1)NCCc1ccc(O)c(O)c1 (stereo not given) , which call appears in the assay record?
Key: false (0)

Exercise: # lookup: test call for CC(C)(C)C(=O)Oc1ccc(S(=O)(=O)Nc2ccccc2C(=O)NCC(=O)O)cc1
Key: false (0)
